experiment: Quantitative High-Throughput drug screen in 47 multiple myeloma cell lines against the NCATS MIPE library collection: KMS26_JCRB cell viability assay (AID 1918975); conditions: KMS26 myeloma cells viability, CellTiter-Glo ATP, 48 h; series mostly up to 45.8 µM; note: nearly all actives have a fitted effect of over 45% in size
Records with an inconclusive call do not appear. Active and inactive are the calls of the source. Calls come from the whole dose curve; as a rule, active = well fitted cell-killing curve with a large enough effect; inconclusive = small, poorly fitted or top-dose-only effect, or effect the other way; inactive = no such curve, though single readings can be large or run the other way.
Your answer must be one of the following: class 1 (active), class 0 (inactive)

A selection of reference data follows.
Compound	Class name
C=C1C(=O)[C@@]23C(CC[C@@H]1[C@H]2O)[C@@]12CO[C@]3(O)[C@@H](O)[C@@H]1C(C)(C)CC[C@@H]2O (stereo partly drawn)	class 1
O=C1Nc2ccc(Cl)cc2C(C#CC2CC2)(C(F)(F)F)O1 (stereo not drawn)	class 1
Cc1[nH]c(C=C2C(=O)Nc3ccc(S(=O)(=O)Cc4c(Cl)cccc4Cl)cc32)c(C)c1C(=O)N1CCC[C@H]1CN1CCCC1	class 1
C[C@H](NC(=O)C(=O)Nc1ccccc1C(C)(C)C)C(=O)N[C@@H](CC(=O)O)C(=O)COc1c(F)c(F)cc(F)c1F	class 0
Cc1ccc(C(C)(O)c2nc3ccccc3s2)c(C)c1 (stereo not drawn)	class 0
CC(=O)Oc1cc2c(s1)CCN(C(C(=O)C1CC1)c1ccccc1F)C2 (stereo not drawn)	class 1
Clc1ccc(C(c2ccc(Cl)cc2)n2cc[n+](CC(OCc3ccc(Cl)cc3Cl)c3ccc(Cl)cc3Cl)c2)cc1 (stereo not drawn)	class 1
Nc1ncnc2c1nc(Cl)n2[C@@H]1O[C@H](CO)[C@@H](O)[C@@H]1O	class 1

Next, consider the following compound.
Inquiry: # fetch the recorded call for O=c1c(-c2ccc(O)cc2)coc2cc(O[C@@H]3O[C@H](CO)[C@H](O)[C@H](O)[C@H]3O)ccc12 here
Reply text: class 0

====

tested on: WaGa; experiment: qHTS assay to identify novel small-molecules to repurpose for Merkel cell carcinoma treatment (AID 1296009); settings: MCC and control cell lines, CellTiter-Glo viability, 72 h; series mostly up to 46 µM; note: nearly all actives have a fitted effect of over 60% in size
Results filed as inconclusive are left out. Calls of active or inactive are those of the source. Calls come from the whole dose curve; as a rule, active = well fitted inhibition curve with a large enough effect; inconclusive = small, poorly fitted or top-dose-only effect; inactive = flat fitted curve, though single readings scatter.
Your answer must be one of the following: true for active, false for inactive

>>> print(df.to_string())
                                   compound  subject_of_test  class_name
0  COc1cc(Nc2ncc(F)c(Nc3ccc4c(n3)NC(=O)C(C)(C)O4)n2)cc(OC)c1OC             WaGa       false

Inquiry: # fetch the recorded call for CCN(CC)CCOc1ccc(C(=C(Cl)c2ccccc2)c2ccccc2)cc1 here
Reply text: false

Inquiry: # fetch the recorded call for CCC(=O)NC[C@H](Cc1ccc(OCCc2nc(-c3ccccc3)oc2C)cc1)NC(C)=CC(=O)c1ccc(C(F)(F)F)cc1 here
Reply text: true

Inquiry: # fetch the recorded call for CCOC(CN1C(=O)[C@](CC(=O)Nc2ccc(C)cc2)(NC(=O)Nc2ccc(C)cc2)c2ccccc21)OCC here
Reply text: false

Inquiry: # fetch the recorded call for O=C(O)c1ccccc1C(=O)Nc1ccc(-c2ccccc2)cc1 here
Reply text: false

====

experiment: Quantitative High-Throughput drug screen in 47 multiple myeloma cell lines against the NCATS MIPE library collection: MMM1_PLB cell viability assay (AID 1918976); details: MMM1 myeloma cells viability, CellTiter-Glo, 48 h; series mostly up to 45.8 µM; note: potency is the fitted concentration of half-maximal effect; nearly all actives have a fitted effect of over 35% in size
Inconclusive results are not listed. Calls of active or inactive are those of the source. Calls follow the shape of the dose curve; as a rule, active = well fitted cell-killing curve with a large enough effect; inconclusive = small, poorly fitted or top-dose-only effect, or effect the other way; inactive = no such curve, though single readings can be large or run the other way.
Measurement type: Potency

Would you please look over these solved cases?
>>> print(df.to_string())
                                   compound     observed_value
0  O=C1C[C@@H](c2ccc(O)cc2)Oc2cc(O)cc(O)c21   1.48 µM (active)
1  NC(=O)c1cnc(-c2ccc(C3(N)CCC3)cc2)c(-c2ccccc2)c1  0.743 µM (active)
2  O=C(O)C(O)Cc1ccc(O)c(O)c1 (stereo not given)   5.26 µM (active)
3  CN(C)c1cc(NC(=O)CNC(C)(C)C)c(O)c2c1C[C@@H]1C[C@H]3[C@H](N(C)C)C(=O)C(C(N)=O)=C(O)[C@@]3(O)C(=O)C1=C2O   14.8 µM (active)

Now examine the next entry.
Query O=C(O)c1cc(O)c2c(c1)C(=O)c1cccc(O)c1C2=O yields Potency of 2.15 µM (active)

Data provenance is PubChem BioAssay (NCATS).
